# System: Haemophilus influenzae
# procedure.details: Antibacterial activity against Haemophilus influenzae IID983 by agar dilution method
# Format: functional
measured.quantity: MIC (µg/mL)
The figure you give is taken to be in µg/mL; do not add the unit.

Below are worked cases with known answers.
[[record]]
molecule = "CC(=S)NC[C@H]1CN(c2ccc(-c3ccc([C@@]4(C#N)[C@@H]5CNC[C@@H]54)nc3)c(F)c2)C(=O)O1"
unit_annotation = "µg/mL"
experimental_result = 2

[[record]]
molecule = "CC(=O)NC[C@H]1CN(c2ccc(N3CCOCC3)c(F)c2)C(=O)O1"
unit_annotation = "µg/mL"
experimental_result = 16

[[record]]
molecule = "N#C[C@]1(c2ccc(-c3ccc(N4C[C@H](Cn5ccnn5)OC4=O)cc3F)cn2)[C@@H]2C[S+]([O-])C[C@@H]21 (stereo partly specified)"
unit_annotation = "µg/mL"
experimental_result = 4

[[record]]
molecule = "N#C[C@]1(c2ccc(-c3ccc(N4C[C@H](Cn5ccnn5)OC4=O)cc3F)cc2)[C@@H]2CNC[C@@H]21"
unit_annotation = "µg/mL"
experimental_result = 4

[[record]]
molecule = "N[C@]1(c2ccc(-c3ccc(N4C[C@H](Cn5ccnn5)OC4=O)cc3F)cn2)[C@@H]2CNC[C@@H]21"
unit_annotation = "µg/mL"
experimental_result = 32


Turning to the following molecule.
Any idea what MIC was measured for N#C[C@]1(c2ccc(-c3c(F)cc(N4C[C@H](Cn5ccnn5)OC4=O)cc3F)cn2)[C@@H]2CNC[C@@H]21 ?
4

###

# System: Streptococcus pneumoniae
# procedure.details: Antibacterial activity against penicillin-resistant Streptococcus pneumoniae PR44 by agar dilution method
# Type: functional
measured.quantity: MIC (µg/mL)
The figure you give is taken to be in µg/mL; do not add the unit.

Any idea what MIC was measured for N#C[C@]1(c2ccc(-c3ccc(N4C[C@H](Cn5ccnn5)OC4=O)cc3)cn2)[C@@H]2COC[C@@H]21 ?
0.125

###

# System: Streptococcus pneumoniae
# procedure.details: Antibacterial activity against penicillin-resistant Streptococcus pneumoniae PR44 by agar dilution method
# Type: functional
This listing pairs molecules with measured MIC.
Record the result as number plus unit.

Below are worked cases with known answers.
[[record]]
molecule = "N#C[C@]1(c2ccc(-c3c(F)cc(N4C[C@H](Cn5ccnn5)OC4=O)cc3F)cn2)[C@@H]2C[S+]([O-])C[C@@H]21 (stereo not given in full)"
experimental_result = "0.125 µg/mL"

[[record]]
molecule = "N#C[C@]1(c2ccc(-c3ccc(N4C[C@H](COc5ccon5)OC4=O)cc3F)cn2)[C@@H]2CNC[C@@H]21"
experimental_result = "0.06 µg/mL"

[[record]]
molecule = "COC(=S)NC[C@H]1CN(c2ccc(-c3ccc([C@@]4(C#N)[C@@H]5CNC[C@@H]54)nc3)c(F)c2)C(=O)O1"
experimental_result = "0.03 µg/mL"

[[record]]
molecule = "N#C[C@]1(c2ccc(-c3ccc(N4C[C@H](Cn5ccnn5)OC4=O)cc3F)cn2)[C@@H]2CSC[C@@H]21"
experimental_result = "0.06 µg/mL"


Any idea what MIC was measured for N#C[C@]1(c2ccc(-c3ccc(N4C[C@H](Cn5ccnn5)OC4=O)cc3F)cn2)[C@@H]2CS(=O)(=O)C[C@@H]21 ?
0.06 µg/mL

Any idea what MIC was measured for N#C[C@]1(c2ccc(-c3ccc(N4C[C@H](Cn5ccnn5)OC4=O)cc3F)cn2)[C@@H]2CN(C(=O)CO)C[C@@H]21 ?
0.06 µg/mL

Any idea what MIC was measured for N#C[C@]1(c2c(F)cc(-c3ccc(N4C[C@H](Cn5ccnn5)OC4=O)cc3F)cc2F)[C@@H]2CNC[C@@H]21 ?
1 µg/mL

Any idea what MIC was measured for N#C[C@]1(c2ccc(-c3ccc(N4C[C@H](Cn5ccnn5)OC4=O)cc3F)cc2)[C@@H]2CNC[C@@H]21 ?
0.06 µg/mL

Any idea what MIC was measured for N#C[C@]1(c2ccc(-c3ccc(N4C[C@H](Cn5ccnn5)OC4=O)cc3)cn2)[C@@H]2CNC[C@@H]21 ?
0.125 µg/mL

Any idea what MIC was measured for N#C[C@]1(c2ccc(-c3ccc(N4C[C@H](Cn5ccnn5)OC4=O)cc3F)cn2)[C@@H]2COC[C@@H]21 ?
0.06 µg/mL
